- Procedure Text: chemical genetic growth profiling, strain panel (AID 1159580);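 also: tested at 20 µM; growth read once vehicle control cultures reached saturation at 30 °C; 1 = growth at the plate median or of vehicle wells; lower values mean less growth of the strain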
- Assay Conditions: S. cerevisiae deletion strains, growth OD, locus YPL240C, strain hsp82, active compounds read low
Hit rate of the full screen: of about 5,500 compounds, about 2,000 (36%) were called active. Inconclusive results (about 18%) are left out. The list shows a part of the results.
Result Type: normalized growth
One number for each entry.

Give one value of normalized growth per listed molecule.
1. CN(C)c1nc(N(C)C)nc(N(C)C)n1
2. Nc1ncnc2c1ncn2[C@@H]1O[C@H](CO)[C@@H](O)[C@@H]1O
3. CCCCC(=O)O[C@H]1CCC2C3CCc4cc(O)ccc4C3CC[C@@]21C (stereo partly drawn)
4. CC(=O)O[C@H]1CC2CCC3C(CC[C@@]4(C)C3C[C@H]([N+]3(C)CCCCC3)[C@@H]4OC(C)=O)[C@@]2(C)C[C@@H]1[N+]1(C)CCCCC1 (stereo partly drawn)
5. CC(=O)Oc1ccc2c(c1)CCC1C2CC[C@@]2(C)C1CC[C@@H]2OC(C)=O (stereo partly drawn)

0.974
1.03
1.01
1.02
1

---

- Procedure Text: chemical genetic growth profiling, strain panel (AID 1159580);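 also: tested at 20 µM; growth read once vehicle control cultures reached saturation at 30 °C; 1 = growth at the plate median or of vehicle wells; lower values mean less growth of the strain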
- Assay Conditions: S. cerevisiae deletion strains, growth OD, locus YDR334W, strain swr1, active compounds read low
The campaign covered roughly 5,500 compounds. About 2,000 (36%) were called active. Roughly 18% stayed inconclusive and do not appear here. The list shows a part of the results.
Result Type: normalized growth
Give bare numbers.

>>> print(df.to_string())
                                   compound  measured_number
0  C[C@]12CCC3C(CC[C@H]4CC(=O)CC[C@]34C)C1CCC2=O (stereo partly specified)             1.05
1                COc1cc(OC)c(C(C)=O)c(O)c1C            0.946
2                         COc1c(O)cc(O)cc1O            0.994
3  COc1cc(OC)c2c(=O)c(-c3ccc4c(c3)OCO4)coc2c1            0.991
4  COc1cc2c(cc1-c1coc3c4c(c(OC)cc3c1=O)OC(C)(C)C=C4)OCO2             1.04
5  CC(C)CCCC(C)[C@H]1CCC2C3CC[C@H]4CC(=O)CC[C@]4(C)C3CC[C@@]21C (stereo partly specified)             0.96
6                 COc1cc(O)c(C(C)=O)c(OC)c1                1
7                       COc1cc(O)c(C)c(O)c1             1.02
8  CC1(C)C=Cc2c(cc3occ(-c4ccc5c(c4)OCO5)c(=O)c3c2O)O1             0.95
9  CC(=O)Oc1ccc2c(c1)CCC1C2CC[C@@]2(C)C1CC[C@@H]2OC(C)=O (stereo partly specified)            0.994

# evaluate next
Indicate the recorded normalized growth value for this compound: O=c1c(-c2ccc3c(c2)OCO3)coc2cc(O)ccc12 1

---

- Procedure Text: chemical genetic growth profiling, strain panel (AID 1159580);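 also: tested at 20 µM; growth read once vehicle control cultures reached saturation at 30 °C; 1 = growth at the plate median or of vehicle wells; lower values mean less growth of the strain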
- Assay Conditions: S. cerevisiae deletion strains, growth OD, locus YGL086W, strain mad1, active compounds read low
The whole screen tested about 5,500 compounds, of which about 2,000 (36%) were called active. Not shown: some 18% with an inconclusive outcome. The list shows a part of the results.
Please provide measured normalized growth for the entries that follow.
Answers are plain numbers.

Worked cases, answers included:
>>> print(df.to_string())
                                   compound  measured_number
0  CC(=O)OC1CCC23C(=O)OC45CCC(C6=CC(=O)OC6)C4(C)CCC2C5CCC3(O)C1 (centres undefined)                1
1               N#C/C(=C\c1ccc(O)cc1)C(=O)O             1.02
2  CC1(C)C[C@@H]2C(=O)CC[C@H]3O[C@]3(C)CC[C@H]21            0.966
3            O=C1c2ccccc2C(=O)c2c1ccc(O)c2O            0.291
4  CSCCC(NC=O)C(=O)NC(CC(C)C)C(=O)NC(Cc1ccccc1)C(=O)O (centres undefined)                1
5    O=C1c2ccc(O)c(O)c2C(=O)c2c(O)ccc(O)c21            0.989

Give one value of normalized growth per listed compound.
1. O=c1cc(-c2ccc(O)cc2)oc2cc(O[C@@H]3O[C@H](CO)[C@@H](O)[C@H](O)[C@H]3O[C@@H]3OC[C@](O)(CO)[C@H]3O)cc(O)c12
2. Cn1cnc([N+](=O)[O-])c1Sc1ncnc2nc[nH]c12
3. COC(=O)C[C@H]1C(C)(C)[C@@H](OC(C)=O)[C@@H]2CC3C4CC(=O)O[C@@H](c5ccoc5)[C@]4(C)CCC3[C@@]1(C)C2=O (some centres undefined)

1: 0.984; 2: 0.991; 3: 1.01
